These measurements were taken from PubChem BioAssay (EPA / NIEHS).

- TEST_SYSTEM: Aryl hydrocarbon receptor (Homo sapiens)
- TEST_DESCRIPTION: ATG_Ahr_CIS: Attagene CIS-FACTORIAL HepG2 Assay for human Aryl Hydrocarbon Receptor (Ahr) (AID 2282930)
- EXPERIMENTAL_SETUP: HepG2 AhR cis-factorial reporter transcription; actives raise or lower the signal
Calls of active or inactive are those of the source. The calls were made as follows: active = hit-call score of the fitted dose curve at least 0.9, where 1 is the maximum; inactive = score below 0.9.
Classes used: active, inactive

{"MOLECULE": "OCCc1ccncc1", "ASSIGNED_CLASS": "inactive"}
{"MOLECULE": "CC(=O)NS(=O)(=O)c1ccc(N)cc1", "ASSIGNED_CLASS": "inactive"}
{"MOLECULE": "CCN(Cc1cccc(S(=O)(=O)O)c1)c1ccc(C(=C2C=CC(=[N+](CC)Cc3cccc(S(=O)(=O)[O-])c3)C=C2)c2ccccc2)cc1", "ASSIGNED_CLASS": "active"}
{"MOLECULE": "CN1C(=O)N(C)C(O)C1O (configuration not stated)", "ASSIGNED_CLASS": "inactive"}
{"MOLECULE": "COC(=O)c1ccccc1OC", "ASSIGNED_CLASS": "inactive"}
{"MOLECULE": "CCOc1nc(F)cc2nc(S(=O)(=O)Nc3c(Cl)cccc3C(=O)OC)nn12", "ASSIGNED_CLASS": "inactive"}
{"MOLECULE": "COCCCOCCCOC", "ASSIGNED_CLASS": "inactive"}
{"MOLECULE": "Cc1ccc(C(C)c2ccc(C)c(C)c2)cc1C", "ASSIGNED_CLASS": "inactive"}
{"MOLECULE": "O=C(OCC1CCC2OC2C1)C1CCC2OC2C1 (configuration not stated)", "ASSIGNED_CLASS": "inactive"}
{"MOLECULE": "CC(=O)OC1C2(C)CCC(C2)C1(C)C (configuration not stated)", "ASSIGNED_CLASS": "inactive"}
{"MOLECULE": "O=C(O)C(c1ccc(Cl)cc1)c1ccc(Cl)cc1", "ASSIGNED_CLASS": "inactive"}
{"MOLECULE": "COC=O", "ASSIGNED_CLASS": "inactive"}
{"MOLECULE": "CCOC(=O)Cc1cccc2ccccc12", "ASSIGNED_CLASS": "inactive"}
{"MOLECULE": "CC(C)(C)C1CCCCC1=O (configuration not stated)", "ASSIGNED_CLASS": "inactive"}
{"MOLECULE": "Cc1ccc(N/N=c2\\c(=O)cc/c(=N/Nc3ccc(S(=O)(=O)O)cc3)c2=O)c(C)c1", "ASSIGNED_CLASS": "active"}
{"MOLECULE": "COc1ccc([C@@H]2CC(=O)c3c(O)cc(O[C@@H]4O[C@H](CO[C@@H]5O[C@@H](C)[C@H](O)[C@@H](O)[C@H]5O)[C@@H](O)[C@H](O)[C@H]4O)cc3O2)cc1OC", "ASSIGNED_CLASS": "inactive"}
{"MOLECULE": "CC1=Nc2ccc3ccccc3c2C1(C)C", "ASSIGNED_CLASS": "inactive"}
{"MOLECULE": "O=c1cc(-c2ccccc2)oc2ccccc12", "ASSIGNED_CLASS": "active"}
{"MOLECULE": "O=C(C(Cl)Cl)N1CCOC12CCCCC2", "ASSIGNED_CLASS": "inactive"}
{"MOLECULE": "O=C1CCC(=O)N1Cl", "ASSIGNED_CLASS": "inactive"}
{"MOLECULE": "C=CC(=O)OCC(Br)CBr (configuration not stated)", "ASSIGNED_CLASS": "inactive"}
{"MOLECULE": "CNC(=S)N(C)C", "ASSIGNED_CLASS": "inactive"}
{"MOLECULE": "N#CCc1ccc(Cl)cc1Cl", "ASSIGNED_CLASS": "active"}
{"MOLECULE": "CC(C)(C)c1ccc(-c2ccc(C(C)(C)C)cc2)cc1", "ASSIGNED_CLASS": "inactive"}
{"MOLECULE": "C#CC1(O)CC[C@H]2[C@@H]3CCC4=CCCC[C@@H]4[C@H]3CC[C@@]21C (some centres not stated)", "ASSIGNED_CLASS": "inactive"}
{"MOLECULE": "CC(C)=CCCC(C)C=O (configuration not stated)", "ASSIGNED_CLASS": "inactive"}
{"MOLECULE": "CCCOC(=O)CCCCC(=O)OCCC", "ASSIGNED_CLASS": "inactive"}
